# study target: T1, SYNJ2BP, P57105
# T1 sequence (P57105 8-110, limits assumed, looked up): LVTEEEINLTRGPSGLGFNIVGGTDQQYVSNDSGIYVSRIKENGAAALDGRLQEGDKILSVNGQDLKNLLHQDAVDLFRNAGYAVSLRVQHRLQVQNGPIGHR
# test method notes: holdup assay
# Parameters: key: below the threshold = too weak to quantify, mostly under pKd 3.1 to 4
# test context: plain residues with an end cap or a label only (N-terminal biotin on a linker: ahx)
experimental readout: pKd

Examples with their reported pKd follow.
Inquiry: Any idea what pKd was measured for TVICWPGSLV [LNX2, Q8N448] ?
Reply text: 5.53

Inquiry: State the recorded pKd for this entry: RRRKRKRTYL [HPV49-L2, P36762]
Reply text: below the threshold

Inquiry: Request the reported pKd associated with ESLLLGPSNF [SHROOM4, Q9ULL8]
Reply text: below the threshold

Inquiry: Name the recorded pKd for NRKREIFSNF [NHERF2, Q15599] .
Reply text: below the threshold

Inquiry: # get_value(readout='pKd', item= GYDWGPATDL [TJP3, O95049] )
Reply text: below the threshold

Inquiry: Fill in the blank: the reported pKd of SDSSGQEYSL [KCTD3, Q9Y597] is ____.
Reply text: below the threshold

Continuing:
Inquiry: Dear colleague, I am looking for the recorded pKd of the following binder: LSDPSVSTVV [GRIN1, Q05586]
Reply text: 3.72

Inquiry: Looking for the measured pKd of RAVEEEESRF [PSCDBP, O60759] , can you help?
Reply text: below the threshold

Inquiry: Any idea what pKd was measured for HNAFLSVTTV [PDZRN4, Q6ZMN7] ?
Reply text: below the threshold

Inquiry: # input binder: PSASCAVTAA [PDLIM4, P50479;P50479-2] ; wanted: its pKd
Reply text: below the threshold

Entry source: paper PMC9482650
